Could you please report measured Total Cell Count for the items listed next?
Test system: Fibroblast
runDescription: Multiplex assay against human fibroblast
Format: toxicity, cell-based
measurementConditions: 48 h, 1 µM, compound concentration 1 uM, replicate 2
Numbers only.

CN1CCN(c2ccc(Nc3c4ccccc4nc4ccccc34)cc2)CC1.Cl.Cl.O :: 157
Nc1nc(CC(=O)Nc2ccc(CCNC[C@H](O)c3ccccc3)cc2)cs1 :: 195
CC(C)(O)C(=O)N1CCN(c2ccc(C(F)(F)F)c(C3=C(c4c[nH]c5ccccc45)C(=O)NC3=O)c2)CC1 :: 165
COCCn1c(C)c(C)s/c1=N\C(=O)C1C(C)(C)C1(C)C :: 140
CCn1c(-c2nc3cc(C(=O)N4CCCC(N)C4)ccc3n2C)cc2ccccc21.Cl (centres undefined) :: 193

State recorded Total Cell Count for all listed molecules.
1. COc1cc(OC2CCN(C(C)=O)CC2)ccc1C(=O)N1CCC(N2C(=O)OCc3ccccc32)CC1
2. CN(C)C/C=C/C(=O)Nc1ccc(C(=O)N2CCCC(Nc3ncc(Cl)c(-c4c[nH]c5ccccc45)n3)C2)cc1 (centres undefined)
3. Cc1sc2c(c1C)C(c1ccc(Cl)cc1)=N[C@H](CC(=O)OC(C)(C)C)c1nnc(C)n1-2
4. CN1CCC(C(=O)c2cccc(NC(=O)c3c(F)cc(F)cc3F)n2)CC1

# output
1. 163
2. 158
3. 140
4. 156

* * *

Provide the reported Population Apoptotic (%) of each item.
System: HEK-293T
runDescription: Multiplex assay against HEK293T
Format: toxicity, cell-based
measurementConditions: human, 24 h, 1 µM, compound concentration 1 uM, replicate 1
Give bare numbers, in %.

CC(C)C[C@H](CO)Nc1nc(S[C@@H](C)c2ccccc2)nc2nc(N)sc12 [AZD-8797] :: 37

Go through the items and report each one's Population Apoptotic (%).
1. CCn1c(-c2nc3cc(C(=O)N4CCCC(N)C4)ccc3n2C)cc2ccccc21.Cl (stereo not drawn)
2. C[C@H](NC(=O)CNC(=O)c1cccc(Cl)c1)c1ccccc1
3. OCCCNc1cc(-c2ccnc(Nc3cccc(Cl)c3)n2)ccn1
4. O=C(NCCNCC(O)COc1ccc(O)cc1)N1CCOCC1.O=C(NCCNCC(O)COc1ccc(O)cc1)N1CCOCC1.O=C(O)/C=C/C(=O)O (stereo not drawn) [XAMOTEROL FUMARATE]
5. CN(C)C(=O)Cn1cc(-c2ccc(-c3nnc4ccccn34)cc2)cn1

# output
1: 35; 2: 23; 3: 91; 4: 26; 5: 27

Please report Population Apoptotic (%) for every entry that follows.
1. CN1C[C@H](C(=O)N[C@]2(C)O[C@@]3(O)[C@@H]4CCCN4C(=O)[C@H](Cc4ccccc4)N3C2=O)C[C@@H]2c3cccc4[nH]cc(c34)C[C@H]21.CS(=O)(=O)O [DIHYDROERGOTAMINE MESYLATE]
2. Nc1nc(-c2ccco2)c2cnn(Cc3ccccc3F)c2n1

# output
[28, 30]

* * *

Tested on: U2OS
runDescription: Multiplex assay against U2OS
Assay type: toxicity, cell-based
measurementConditions: human, 12 h, 1 µM, compound concentration 1 uM, replicate 2
measuredProperty: Population Mitochondria Different-Phenotype (%)
Give bare numbers, in %.

CCCCC[C@H](O)/C=C/[C@H]1[C@H](O)CC(=O)[C@@H]1CCCCCCC(=O)O :: 5

Batch lookup, Population Mitochondria Different-Phenotype (%) per entry.
1. Cl.Cl.OCCOCCN1CCN(C(c2ccccc2)c2ccc(Cl)cc2)CC1 (stereo unspecified) [HYDROXYZINE HYDROCHLORIDE]
2. Cn1cc(C(=O)OCC2CCN(CCNS(C)(=O)=O)CC2)c2ccccc21
3. COc1cc(OC2CCN(C(C)=O)CC2)ccc1C(=O)N1CCC(N2C(=O)OCc3ccccc32)CC1
4. Cc1c(Cc2ccc3ccccc3n2)c2cc(F)ccc2n1CC(=O)O
5. COc1cc2nc(N3CCN(C(=O)COc4c(OC)cccc4C(C)C)CC3)nc(N)c2cc1OC.Cl.Cl

# output
6
5
7
4
6
